target: T1, MT1-MMP Hemopexin domain (PEX) (UniProt P50281 319-511); experiment: FP competition vs tracer 17-69-07-N040
T1 construct: domain: Hemopexin domain (PEX); Target of the fluorescence polarisation assays; also called hemopexin of MT1-MMP; MMP14
pKd: −log10 of the molar value. Numbered stars: 1 amine (or outer) side, 2 acyl side, 3 side chain; on linkers, the order of the positions; unused ones are H or OH. Bridge positions count the residues as written; N and C are the ends. Ends that are not written are not given here. TATA = O=C(CC[*:1])N1CN(C(=O)CC[*:2])CN(C(=O)CC[*:3])C1
ASSAY_READOUT: pKd

Param item = ACADECRLLFPKTCA (linker 2-6-14 via TATA) [17-120-05] ; retrieve measured pKd. < 6.55

Likewise for ACDEQFYPCNHRLNTCA (linker 2-9-16 via TATA (inferred)) [17-126-24] ? 6.70

Also need ACLEPDECFYPMECA (linker 2-8-14 via TATA) [17-122-02] , thanks. < 6.03

One more binder: ACEEAFYPCHHPLYRCA (linker 2-9-16 via TATA (inferred)) [17-126-25] < 6.86

Follow-up entry: ACDSPEECFYPLECA (linker 2-8-14 via TATA) [17-122-04] < 5.68

What do you have for ACKEPQECFYPLKCA (linker 2-8-14 via TATA) [17-122-03] ? < 6.42
